# Tgt: UniProt:P47747
# Sequence (P47747 whole entry): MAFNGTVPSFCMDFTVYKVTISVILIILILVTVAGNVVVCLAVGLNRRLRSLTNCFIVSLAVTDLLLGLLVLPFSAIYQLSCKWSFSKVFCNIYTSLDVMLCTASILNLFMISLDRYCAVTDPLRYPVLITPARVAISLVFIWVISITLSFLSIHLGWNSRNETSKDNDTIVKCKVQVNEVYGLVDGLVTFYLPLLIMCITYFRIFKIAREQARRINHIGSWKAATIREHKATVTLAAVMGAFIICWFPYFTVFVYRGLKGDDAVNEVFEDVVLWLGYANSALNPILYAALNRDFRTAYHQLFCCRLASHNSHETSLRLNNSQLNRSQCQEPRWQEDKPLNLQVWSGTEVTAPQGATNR
# Procedure summary: In vitro antagonistic activity against histamine H2-receptor of guinea pig atrium
# Type: functional, tissue-based
# Applied conditions: Cardiac atrium
Recorded endpoint: -Log K
Please reply with the number alone, leaving off any unit.

[[record]]
molecular_string = "c1ccc2c(COCCCc3c[nH]cn3)cccc2c1"
recorded_endpoint = "-Log K"
readout_value = 4.9


Proceeding to the next compound to report its -Log K.
[in] Missing value: -Log K, UniProt:P47747, entry `c1ccc(COCCCc2c[nH]cn2)cc1` . Fill in?
[out] 3.7

---

# Tgt: UniProtKB P47747
# Procedure summary: In vitro antagonistic activity against histamine H2-receptor of guinea pig atrium
# Type: functional, tissue-based
# Applied conditions: Cardiac atrium
Recorded endpoint: -Log K

[[record]]
molecule = "Brc1ccc(C(OCCCc2c[nH]cn2)c2ccccc2)cc1 (stereo unspecified)"
readout_value = 5.4

[[record]]
molecule = "S=C(NC1CCCCC1)N1CCC(c2cnc[nH]2)CC1"
readout_value = "< 5"

[[record]]
molecule = "Fc1ccc(C(OCCCc2c[nH]cn2)c2ccc(F)cc2)cc1"
readout_value = 5.6

[[record]]
molecule = "Fc1ccc(C(OCCCc2c[nH]cn2)c2ccccc2)cc1 (stereo unspecified)"
readout_value = 5.3

[[record]]
molecule = "Clc1ccc(C(OCCCc2c[nH]cn2)c2ccccc2)cc1 (stereo unspecified)"
readout_value = 5.2


Proceeding to the next molecule to report its -Log K.
[in] Request the reported -Log K associated with `c1ccc(C(OCCCc2c[nH]cn2)c2ccccc2)cc1`
[out] 5.5
